- Method Description: Quantitative High-Throughput drug screen in 47 multiple myeloma cell lines against the NCATS MIPE library collection: UTMC2_PLB cell viability assay (AID 1919868); also: nearly all actives have a fitted effect of over 55% in size
- Condition Set: CellTiter-Glo ATP luminescence, 48 h
Results filed as inconclusive are left out. Active and inactive are the calls of the source. Calls follow the shape of the dose curve; as a rule, active = well fitted cell-killing curve with a large enough effect; inconclusive = small, poorly fitted or top-dose-only effect, or effect the other way; inactive = no such curve, though single readings can be large or run the other way.
Select the matching outcome among TRUE for active, FALSE for inactive

>>> label("N#Cc1c(NC(=O)c2cccc3ccccc23)sc2c1CCCC2")
"TRUE"
>>> label("C=C1C[C@@]2(O)O[C@@]3(C[C@H]2C(C)C)[C@H](C)CC[C@H]13")
"FALSE"
>>> label("O=C1NC(=O)[C@@H](c2cn3c4c(cccc24)CCC3)[C@H]1c1c[nH]c2ccccc12")
"TRUE"
>>> label("COc1ccnc2[nH]cc(C(=O)C(=O)N3CCN(C(=O)c4ccccc4)C[C@@H]3C)c12")
"FALSE"
>>> label("O=C1NC(=O)C(=Cc2ccc3nccc(-c4ccncc4)c3c2)S1")
"TRUE"

Req: Just curious, what result did Cc1ncc(-c2ccnc(Nc3ccc(S(C)(=O)=O)cc3)n2)n1C(C)C get here?
Resp: TRUE

Req: Just curious, what result did Cc1cnc(NC(=O)Nc2cc(Br)c(C)cc2OC[C@@H]2CNCCO2)cn1 get here?
Resp: TRUE

Req: Just curious, what result did c1coc(CNc2ncnc3nc[nH]c23)c1 get here?
Resp: FALSE

Req: Just curious, what result did CC(=O)O[C@H]1C[C@@H]2CC[C@H]3[C@H]4C[C@H]([N+]5(C)CCCCC5)[C@@H](OC(C)=O)[C@@]4(C)CC[C@@H]3[C@@]2(C)C[C@H]1N1CCCCC1 get here?
Resp: FALSE

Req: Just curious, what result did COc1ccc(C[C@@H](C)[C@@H](C)Cc2ccc(OC)c(OC)c2)cc1OC get here?
Resp: TRUE

Req: Just curious, what result did CCOC(=O)N1CCN([N+]([O-])=NOc2ccc([N+](=O)[O-])cc2[N+](=O)[O-])CC1 get here?
Resp: TRUE

Req: Just curious, what result did CCOC(=O)[C@@H](N)Cc1ccc(-c2cc(O[C@H](c3ccc(Cl)cc3-n3ccc(C)n3)C(F)(F)F)nc(N)n2)cc1 get here?
Resp: TRUE

###

- System: SKOV3
- Method Description: Primary qHTS to identify gynecologic anti-cancer compounds using libraries of approved drugs and bioactive compounds (AID 1345084); also: nearly all actives have a fitted effect of over 55% in size
- Condition Set: Gynecologic cancer cell panel viability, ATPlite luminescence, 48 h; series mostly up to 57.5 µM
Results filed as inconclusive are left out. Calls of active or inactive are those of the source. Calls follow the shape of the dose curve; as a rule, active = well fitted cell-killing curve with a large enough effect; inconclusive = small, poorly fitted or top-dose-only effect, or effect the other way; inactive = flat fitted curve, though single readings scatter.
Select the matching outcome among TRUE for active, FALSE for inactive

Some solved cases for reference:
>>> label("Cn1cnc2c(F)c(Nc3ccc(Br)cc3F)c(C(=O)NOCCO)cc21")
"FALSE"
>>> label("CC1(C)O[C@@H]2C[C@H]3[C@@H]4CCC5=CC(=O)C=C[C@]5(C)[C@@H]4[C@@H](O)C[C@]3(C)[C@]2(C(=O)CO)O1")
"FALSE"
>>> label("CN1CCc2c(c3ccccc3n2Cc2ccc(C(=O)NO)cc2)C1")
"FALSE"
>>> label("COc1ccc(S(=O)(=O)Nc2cccnc2Nc2ccc(O)cc2)cc1")
"TRUE"
>>> label("O=C(O)c1ccc(Nc2ncc3c(n2)-c2ccc(Cl)cc2C(c2c(F)cccc2F)=NC3)cc1")
"FALSE"

Req: Just curious, what result did C[N+]1(C)[C@@H]2C[C@@H](OC(=O)C(O)(c3cccs3)c3cccs3)C[C@H]1[C@@H]1O[C@@H]12 get here?
Resp: FALSE

Req: Just curious, what result did Cc1ccc(-n2[nH]c(C)c(N=Nc3cccc(-c4cccc(C(=O)O)c4)c3O)c2=O)cc1C get here?
Resp: FALSE

Req: Just curious, what result did CC(O)(C#Cc1ccc2c(c1)N(c1nc(N)ncc1Cl)CC2)c1nccs1 (centres undefined) get here?
Resp: FALSE

Req: Just curious, what result did CC(C)c1cc(C(C)C)c(CC(=O)NS(=O)(=O)Oc2c(C(C)C)cccc2C(C)C)c(C(C)C)c1 get here?
Resp: FALSE

Hello, the source for this data is PubChem BioAssay (NCATS), in case you need it.
